SYSTEM UNDER TEST: T1, human TIGIT over-expressed on cells (human, UniProt Q495A1 22-244)
T1 sequence: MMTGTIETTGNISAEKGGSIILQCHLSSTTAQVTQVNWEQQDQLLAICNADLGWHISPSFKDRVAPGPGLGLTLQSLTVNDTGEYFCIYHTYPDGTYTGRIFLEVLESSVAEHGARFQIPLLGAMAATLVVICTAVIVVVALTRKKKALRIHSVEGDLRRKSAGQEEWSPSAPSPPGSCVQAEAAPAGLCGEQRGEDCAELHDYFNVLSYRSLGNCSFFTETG
ASSAY PROTOCOL: cell-based or functional assay
QUANTITY KIND: IL-2 secretion in T cell activation, Bottom (best-fit)

- BINDER: "92E9D4B4 (antibody, V domains shown, Mouse monoclonal antibody; also called mouse anti-human TIGIT monoclonal antibody 92E9D4B4) VH: EVMLVESGGGLVKPGGSLKLSCAASGFTFSFYTMSWVRQTPEKRLEWVATISGGGGDTYYPDNVKGRFTISRDNAKNNLYLQMSSLRSEDTALYYCARSLPVDFWGQGTTLTVSS VL: QIVLTQSPAIMSASLGERVTMTCTASSSVSSTYLHWYQQKPGSSPKFWIYSTSNMASGVPARFSGSGSGTSYSLTISSMEAEDAATYYCHYYHRSPYTFGGGTKLEIK"
  RESULT: 106
- BINDER: "100C4E7D11 (antibody, V domains shown, Mouse monoclonal antibody; also called mouse anti-human TIGIT monoclonal antibody 100C4E7D11) VH: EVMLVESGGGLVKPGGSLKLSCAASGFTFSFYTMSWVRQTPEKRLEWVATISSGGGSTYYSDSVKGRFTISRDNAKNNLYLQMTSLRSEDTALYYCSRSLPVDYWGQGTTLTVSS VL: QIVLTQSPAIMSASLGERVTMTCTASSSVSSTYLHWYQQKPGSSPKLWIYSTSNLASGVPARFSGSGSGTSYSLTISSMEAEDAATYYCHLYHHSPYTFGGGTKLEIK"
  RESULT: 107
- BINDER: "121C2F10B5 (antibody, V domains shown, Mouse monoclonal antibody; also called mouse anti-human TIGIT monoclonal antibody 121C2F10B5) VH: EVQLVESGGDLVKPGGSLKLSCAASGFTFSTYGMSWVRQTPDKRLEWVATISSGGSYTYYPDSVKGRFTISRDNAKNTLYLQMSSLKSEDTAMYYCARQVHYFYAMDYWGQGTSVTVSS VL: DIQMTQSPASLSVSVGETVTITCRASENIYSNLAWYQQKQGKSPQVLVYAATNLADGVPSRFSGSRSGTQYSLKINSLQSEDFGSYYCQHFWDNAYTFGGGTKLEIK"
  RESULT: 96.2
- BINDER: "104G12E12G2 (antibody, V domains shown, Mouse monoclonal antibody; also called mouse anti-human TIGIT monoclonal antibody 104G12E12G2) VH: EVQLQQSGPELVKPGASVKISCKASGYSFTGSYIHWVKQNHVKTLEWIGRINPHNGPTSYNQNFKGKASLTVDLSSSTAYMEVHSLTSEDSAVYYCVRYDGYYGGALDYWGQGTSVTVSS VL: DIQMTQSPSSLSASLGERVSLTCRASQEISGYLSWLQQKPDGTIKRLIYAASTLDSGVPKRFSGSRSGSDYSLTISSLESEDFADYYCLQYASYPYTFGGGTKLEIK"
  RESULT: 108
- BINDER: "64G1E9B4 (antibody, V domains shown, Mouse monoclonal antibody; also called mouse anti-human TIGIT monoclonal antibody 64G1E9B4) VH: EVQLQQSGPELVKPGASVKISCKTSGYTFTEHVIHWVKQSHGKSLEWIGGFNPNHDGTIYNQIFRGKATLTVDKSSSTAYMELRSLTSEDSAVYFCTRAAKLLFAMDYWGQGTSVTVSS VL: DIVMTQSHKFMSTSIGDRVSITCKASQHVSNAVVWYQQKPGQSPKLLIYSPSYRFTGVPDRFTGSGSGTDFTFTISSVQAEDLAVYYCQQHYSTPWTFGGGTKLEIK"
  RESULT: 111
- BINDER: "83G6H11C12 (antibody, V domains shown, Mouse monoclonal antibody; also called mouse anti-human TIGIT monoclonal antibody 83G6H11C12) VH: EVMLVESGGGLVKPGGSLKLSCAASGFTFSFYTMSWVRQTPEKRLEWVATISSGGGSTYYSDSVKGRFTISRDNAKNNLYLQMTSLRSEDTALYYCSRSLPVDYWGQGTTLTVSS VL: QIVLTQSPAIMSASLGERVTMTCTASSSVSSSYLHWYQQKPGSSPKLWIYSTSNLASGVPARFSGSGSGTSYSLTISSMEAEDAATYYCHLYHHSPYTFGGGTKLEIK"
  RESULT: 104

Just for reference, patent US20210095028A1 is where these values come from.
